Target: PDE9A2 (Homo sapiens, UniProt O76083)
Sequence (O76083 1-533 isoform O76083-2): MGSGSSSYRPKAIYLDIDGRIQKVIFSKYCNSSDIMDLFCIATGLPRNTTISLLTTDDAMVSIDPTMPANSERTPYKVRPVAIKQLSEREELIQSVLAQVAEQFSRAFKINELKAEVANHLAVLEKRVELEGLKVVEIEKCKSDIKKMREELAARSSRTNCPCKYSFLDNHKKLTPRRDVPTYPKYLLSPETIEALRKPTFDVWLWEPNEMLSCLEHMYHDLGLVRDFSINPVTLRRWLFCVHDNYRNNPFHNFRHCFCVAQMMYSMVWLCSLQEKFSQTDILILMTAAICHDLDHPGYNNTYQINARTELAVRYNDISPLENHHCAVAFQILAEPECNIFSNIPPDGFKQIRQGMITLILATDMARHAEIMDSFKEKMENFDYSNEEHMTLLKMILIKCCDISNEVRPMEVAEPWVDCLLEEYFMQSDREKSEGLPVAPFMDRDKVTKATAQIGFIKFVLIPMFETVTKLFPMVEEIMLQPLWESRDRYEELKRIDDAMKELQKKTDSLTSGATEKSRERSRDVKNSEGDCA
PROPERTY: IC50

# COMPOUND, RESULT VALUE
measured = [
    ("CCS(=O)(=O)N1CCC(c2ncc3c(=O)[nH]c([C@@H]4CN(Cc5ccccc5)C[C@H]4C)nn23)CC1 (single isomer, unassigned)", "> 10 µM"),
    ("C[C@@H]1CN(Cc2ccc(C#N)cc2)C[C@H]1c1nn2c(C3CCOCC3)ncc2c(=O)[nH]1 (single isomer, unassigned)", "< 1 µM"),
    ("C[C@@H]1CN(Cc2ccc3nccn3n2)C[C@H]1c1nn2c(C3CCOCC3)ncc2c(=O)[nH]1 (single isomer, unassigned)", "< 1 µM"),
    ("C[C@@H]1CN(Cc2cn3ncccc3n2)C[C@H]1c1nn2c(C3CCOCC3)ncc2c(=O)[nH]1 (single isomer, unassigned) [(−)-2-((3,4-trans)-1-(imidazo[1,2-b]pyridazin-2-ylmethyl)-4-]", "< 1 µM"),
    ("CC1CN([C@@H](C)c2ccccc2)CC1c1nn2c(C3CCOCC3)ncc2c(=O)[nH]1 (single isomer, unassigned; (+))", "< 1 µM"),
    ("C[C@@H]1CN(Cc2cccc(C#N)c2)C[C@H]1c1nn2c(C3CCOCC3)ncc2c(=O)[nH]1 (single isomer, unassigned)", "< 1 µM"),
    ("C[C@@H]1CN(Cc2ncccn2)C[C@H]1c1nn2c(C3CCC(F)(F)CC3)ncc2c(=O)[nH]1 (single isomer, unassigned)", "< 1 µM"),
    ("CC(=O)N1CCC(c2ncc3c(=O)[nH]c([C@@H]4CN(Cc5ncccn5)C[C@H]4C)nn23)CC1 (single isomer, unassigned)", "1 to 10 µM"),
    ("Cc1ccc(Cl)cc1-c1ncc2c(=O)[nH]c([C@@H]3CNC[C@H]3C)nn12 (relative stereo)", "1 to 10 µM"),
    ("C[C@@H]1CN(Cc2ccccc2)C[C@H]1c1nn2c(C3CCC(F)(F)CC3)ncc2c(=O)[nH]1 (single isomer, unassigned)", "< 1 µM"),
    ("C[C@@H]1CN(Cc2ccccn2)C[C@H]1c1nn2c(C3CCOCC3)ncc2c(=O)[nH]1 (single isomer, unassigned)", "< 1 µM"),
    ("CC1CN(Cc2ccccc2)CC1c1nn2c(C34CC5CC(CC(C5)C3)C4)ncc2c(=O)[nH]1 (single isomer, unassigned; (+))", "< 1 µM"),
    ("Cc1cc(F)ccc1-c1ncc2c(=O)[nH]c([C@@H]3CN(Cc4ncccn4)C[C@H]3C)nn12 (single isomer, unassigned)", "< 1 µM"),
]
